assay: Toxicity liver stage against HepG2, at 10uM; format: cell-based; set-up: test concentration 10 uM, cell line HepG2-A16-CD81EGFP; details: human, HepG2-A16-CD81EGFP cells; read-out: INHIBITION
Measured Metric: cytotoxicity at 10 µM (%)
One number for each entry, in %.

Req: Give the measured cytotoxicity at 10 µM for `CNC(=O)[C@@]12CCO[C@@H]1CCN(Cc1c(C)noc1C)C2`
Resp: -70.5

Req: Give the measured cytotoxicity at 10 µM for `O=C(CCN1CCOCC1)Nc1cccc(CNCc2cccs2)c1`
Resp: 5.04

Provide each entry's cytotoxicity at 10 µM from the list below.
1. CCc1ccc2c(c1)C(CCNC(=O)CCc1ccsc1)C(=O)N2 (stereo not drawn)
2. COCC(NC(=O)c1cn2ccsc2n1)c1ccnn1C (stereo not drawn)
3. Cc1cc(NCC(C)C)ccc1C(=O)N(C)C
4. Cc1nsc(NC(=O)NC2(CN3CCOCC3)CCCC2)n1
5. Cc1nccn1C1CCCN(C(=O)CCNc2ncccn2)C1 (stereo not drawn)
6. CN1Cc2nnc(C3CCOCC3)n2C(Cc2c[nH]cn2)C1 (stereo not drawn)
7. Cc1ccc2c(c1)nc1n2[C@@H](CNC(=O)c2ccccn2)COC1
8. COc1ccc(CN2CCC3(CC2)NC(=O)CC3c2cnn(C)c2)cc1 (stereo not drawn)

Resp:
[-41.5, -47.8, 9.86, 3.89, -13.7, -12.1, 7.82, 0.424]

Provide each entry's cytotoxicity at 10 µM from the list below.
1. COCc1csc(NC(=O)N2CCC(Cc3cnn(C)c3)C2)n1 (stereo not drawn)
2. CN(CC(C)(CO)CO)C(=O)Nc1cc(F)cc(Cl)c1
3. COCC(=O)N1CCn2c(Cn3cncn3)cnc2C1C (stereo not drawn)

Resp:
3.13
-0.19
0.53

The reported numbers originate from ChEMBL document CHEMBL4513216.
